- measurement-description: yeast display, Sf9 membrane polyspecificity reagent, FACS + sequencing; frameworks hold sequencing errors
endpoint: polyreactivity (PSR sort gate)

| sequence-record | polyreactivity (PSR sort gate) |
| --- | --- |
| QEQLVESGGGLVQAGGSLRLSGAASGGIFGRYAMGGYRQAPGKEMELVAAISKRGGSTYYADSVKGRFTISRDNAKNTVYLQMNSLKPEETAFYYCNAAQSVELGYDYWGQGTQVTVSS | high polyreactivity |
| QVQLVESGGGLVQAGGSLRLSCAASGSTFTLYVMGWYRQAPGKERELVAAISRGDTTNYADSVKGRFTISRDNAKNTVYLQMNSLKPEDTAVYYCAATYPTFFYWSKGYERDYWGQGTQVTVSS | low polyreactivity |
| QVQLVESGGGLVQAGGSLRLSCAASGFTLPVYAMGWYRQAPGKERELVARITWSAGRTYYADSVKGRFTISRDNAKNTGYLQMNSLKPEDTAVYYCAAGPVSQHHSPRPHDYWGQGTQVTVSS | high polyreactivity |
| QVQLVESGGGLVQAGGSLRLSCAASGGTFKHYAMGWYRQAAGKERELVAAITRTGGSTYYADSVKGRYTISRDNAKNTVYLQMNSLKPEDTAVYYCAAQRPRGAYRHYDYWGQGTQVTVSS | high polyreactivity |

Problem: GET /values?readout=polyreactivity (PSR sort gate)&item= QVQLVESGGGLVQAGGSLRLSCAASGRTFVTYAMGWYRQAPGKEREFVAAITWSTGTSTYYADSVKGRFTISRDNAKNTVYLQMNSLKPEDTAVYYCAVDIWWPTWYYIYWGQGTQVTVSS
Result: low polyreactivity
